Cited source: the supplement of paper PMC6555819

- Tested on: PPARg:RXRa (NR concentration 180 nM, RXRa partner concentration 90 nM)
- experimental-details: PBM binding z-score (relative to random genomic background probes); higher = stronger binding; sequences stand for … in GC…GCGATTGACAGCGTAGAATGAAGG
experimental-endpoint: PBM binding z-score

polymer_sequence=AGAACGAGGGCACGCTGAGATGATAGCAGAGTAG experimental_endpoint="PBM binding z-score" endpoint_result=2.33
polymer_sequence=ATATGTAGATTATCGGGTCATTCAGTTTGCGCAT experimental_endpoint="PBM binding z-score" endpoint_result=1.63
polymer_sequence=CCTACTGGGCCAAAGGTCATGGATTCCAATGCTC experimental_endpoint="PBM binding z-score" endpoint_result=12
polymer_sequence=CCGACCGGGGCAAGGTTACCATAACGCACAGCCA experimental_endpoint="PBM binding z-score" endpoint_result=1.3
polymer_sequence=CCAACTAGGTCAAAGGTCAAAGTCGAGCCAACCA experimental_endpoint="PBM binding z-score" endpoint_result=13.6
polymer_sequence=CCTAGCAGGCCAATGTGGGTCACTCAAGGCTTGA experimental_endpoint="PBM binding z-score" endpoint_result=1.94
polymer_sequence=CCAGACAGGTGAGTAGGTAACTCAGCCTCGATTA experimental_endpoint="PBM binding z-score" endpoint_result=0.545
polymer_sequence=CCTTACGGGTCACTGACAGGGTATAGCATTTGGA experimental_endpoint="PBM binding z-score" endpoint_result=3.98
polymer_sequence=TCATATAGGTAATACAGGTGAAAGTTGGCATCTA experimental_endpoint="PBM binding z-score" endpoint_result=3.47
polymer_sequence=TTGAGTAGGTTAGTCGGGGCATTCAGCCAACATA experimental_endpoint="PBM binding z-score" endpoint_result=0.307
polymer_sequence=GGAACGAGGGCAAAGTGGATAGCATCTGTCGACG experimental_endpoint="PBM binding z-score" endpoint_result=4.34
polymer_sequence=CAAACTAGTTCAAGGTCAAAGTCGGTTTGTGCCA experimental_endpoint="PBM binding z-score" endpoint_result=3.27
polymer_sequence=TCGCGGAGGACACGAAAGGTCAGAGCTCGACATC experimental_endpoint="PBM binding z-score" endpoint_result=1.18
polymer_sequence=CGAACTAGATCATTGACAGGACAGTGAATAGTAA experimental_endpoint="PBM binding z-score" endpoint_result=0.572
polymer_sequence=AGAATGAGGTTATTAAGCTCAGGGAATTGCGGTC experimental_endpoint="PBM binding z-score" endpoint_result=0.995
polymer_sequence=CAAACTAGGTCGAAGGTCAAAGTCGAGCCAACCA experimental_endpoint="PBM binding z-score" endpoint_result=12.4
polymer_sequence=TCTTGTAGATCAGGAGGTTAAGAAAGCTGGCCAA experimental_endpoint="PBM binding z-score" endpoint_result=-0.25
polymer_sequence=CCGACTGGGGCAAGGTTAACATAACGCACAGCCA experimental_endpoint="PBM binding z-score" endpoint_result=4.38
polymer_sequence=CCAGACAGGTGGGAAGGTAACTCAGCCTCGATTA experimental_endpoint="PBM binding z-score" endpoint_result=0.131
polymer_sequence=ATCGAAATGTCGAAGGTGAGTATACCCACCCGAA experimental_endpoint="PBM binding z-score" endpoint_result=0.913
polymer_sequence=CCGACTGGGGCAGCAAGGTTACCATACCATCCGG experimental_endpoint="PBM binding z-score" endpoint_result=0.917
polymer_sequence=CGTCAAAATTCAACTAAGGTAACGTAAAGCACGC experimental_endpoint="PBM binding z-score" endpoint_result=0.569
polymer_sequence=CCAGACAGGTGAAAGGAAACTCAGTCTGGTACGC experimental_endpoint="PBM binding z-score" endpoint_result=0.81
polymer_sequence=CAAACTAGGTCAAGAGGTCAAATTCCGCTTCCCG experimental_endpoint="PBM binding z-score" endpoint_result=9.67
polymer_sequence=GCTAGCATGCCATTTGGGTCACTCAATGACGGGC experimental_endpoint="PBM binding z-score" endpoint_result=0.819
polymer_sequence=AGAAAGAGGGCAATGAGTTGATAGCACGGGTGGC experimental_endpoint="PBM binding z-score" endpoint_result=1.23
